System: SF-539 CNS
methodSummary: NCI tumour cell line growth inhibition, 48 h
Mark -1 for TGI values under 20 µM, and 1 for everything at or above.

{"compound": "C[N+](C)(C)CC(=O)N/N=C(/C(=O)Nc1ccc(Br)cc1)C1C(=O)NC(=O)NC1=O", "label": 1}
{"compound": "COc1ccc2c3c([nH]c2c1)CCN(CCCC(=O)c1ccc(F)cc1)C3", "label": 1}
{"compound": "CC(C)(C)c1ccc(Oc2ccc(N)cn2)cc1", "label": 1}
{"compound": "COc1ccc(N=NC(=O)NC(CC(C)C)C(N)=O)cc1 (stereo not given)", "label": 1}
{"compound": "C[C@]12CC[C@H]3[C@@H](CC=C4C[C@@H](N5CCCC5)CC[C@@]43C)[C@@H]1C/C(=C\\c1cccc(OCCN3CCOCC3)c1)[C@@H]2O", "label": -1}
{"compound": "OC(COC(c1ccccc1)(c1ccccc1)c1ccccc1)C(O)CC1SCCS1 (stereo not given)", "label": 1}
{"compound": "Nc1nc([Se])c2ncn(C3OC(CO)C(O)C3O)c2n1 (stereo not given)", "label": 1}
{"compound": "O=[N+]([O-])C=C(c1ccc(Cl)cc1)c1ccc(Cl)cc1", "label": 1}
{"compound": "N/C(=N\\N=C\\c1ccc(C(F)(F)F)cc1)NO", "label": 1}
{"compound": "COCc1c(-c2cc3cc(C)cc(OC)c3s2)c2c(N)ncnn2c1CN1CCNC(=O)C1", "label": -1}

====

Tested on: DLD-1 colon
methodSummary: NCI tumour cell line growth inhibition, 48 h

{"molecule": "C[N+](C)(C)CC(=O)N/N=C(/C(=O)Nc1ccc(Br)cc1)C1C(=O)NC(=O)NC1=O", "TGI": "> 100 µM"}
{"molecule": "ClC/C=C/COC1CCCCO1 (stereo unspecified)", "TGI": "> 100 µM"}
{"molecule": "O=[N+]([O-])C=C(c1ccc(Cl)cc1)c1ccc(Cl)cc1", "TGI": "32 µM"}
{"molecule": "Cc1ccc(S(=O)(=O)SC(C)(C)C)cc1", "TGI": "35.3 µM"}
{"molecule": "CN(C)C(=N/O)/C(=N\\O)N(C)C", "TGI": "> 100 µM"}
{"molecule": "COc1ccc2c3c([nH]c2c1[N+](=O)[O-])C(C)N(Cc1ccccc1)CC3 (stereo unspecified)", "TGI": "> 100 µM"}
{"molecule": "CC1=C(/C=C/C(C)=C/C2CC(N(C)C)=CC(=O)O2)C(C)(C)CCC1 (stereo unspecified)", "TGI": "32.8 µM"}
{"molecule": "O=C(c1ccccc1)C1S(=O)(=O)OCCOS1(=O)=O", "TGI": "> 100 µM"}
{"molecule": "c1ccc(C2OC3(CCC[C@H]4C[C@H]43)O[C@H]2c2ccccc2)cc1 (stereo partly specified)", "TGI": "> 100 µM"}
{"molecule": "O=[N+]([O-])C(/C=N/Nc1ccccc1)/C=N/Nc1ccccc1", "TGI": "> 100 µM"}
{"molecule": "O=C(O)c1ccc(C2=Cc3cc(Cl)ccc3OC2)cc1", "TGI": "> 100 µM"}

====

System: HOP-92 NSCLC
methodSummary: NCI tumour cell line growth inhibition, 48 h; in the data active = GI50 below about 0.43 µM; inactive = the rest
Classes used: t (active), f (inactive)

{"lineNotation": "NCCCC[C@@H]1NC(=O)[C@H](CC(=O)O)NC(=O)CNC(=O)[C@H](CCCN=C(N)N)NC(=O)[C@@H](N)CSSC[C@@H](C(=O)O)NC(=O)[C@H](CC(=O)O)NC(=O)[C@@H]2CCCN2C(=O)CNC1=O", "system": "HOP-92 NSCLC", "label": "f"}
{"lineNotation": "Cn1cc(-c2ccc3cc(-c4ccc(CC(=O)Nc5cc(C(C)(C)C)on5)cc4)cnc3c2)cn1", "system": "HOP-92 NSCLC", "label": "f"}
{"lineNotation": "CNC(=O)c1c(NC(=O)c2ccc(C(C)(C)C)cc2)sc2c1CCC(=O)C2", "system": "HOP-92 NSCLC", "label": "t"}
{"lineNotation": "COc1cccc(CC(C)=C(c2ccc(OCCN3CCCCC3)cc2)c2ccc(OCCN3CCCCC3)cc2)c1", "system": "HOP-92 NSCLC", "label": "f"}
